Each recorded value in this set is attributed to paper PMC8608967.

- testSystem: human recombinant MAO-B (hMAO-B) (Homo sapiens)
- Construct: purchased Sigma Aldrich
- Sequence (P27338 whole entry): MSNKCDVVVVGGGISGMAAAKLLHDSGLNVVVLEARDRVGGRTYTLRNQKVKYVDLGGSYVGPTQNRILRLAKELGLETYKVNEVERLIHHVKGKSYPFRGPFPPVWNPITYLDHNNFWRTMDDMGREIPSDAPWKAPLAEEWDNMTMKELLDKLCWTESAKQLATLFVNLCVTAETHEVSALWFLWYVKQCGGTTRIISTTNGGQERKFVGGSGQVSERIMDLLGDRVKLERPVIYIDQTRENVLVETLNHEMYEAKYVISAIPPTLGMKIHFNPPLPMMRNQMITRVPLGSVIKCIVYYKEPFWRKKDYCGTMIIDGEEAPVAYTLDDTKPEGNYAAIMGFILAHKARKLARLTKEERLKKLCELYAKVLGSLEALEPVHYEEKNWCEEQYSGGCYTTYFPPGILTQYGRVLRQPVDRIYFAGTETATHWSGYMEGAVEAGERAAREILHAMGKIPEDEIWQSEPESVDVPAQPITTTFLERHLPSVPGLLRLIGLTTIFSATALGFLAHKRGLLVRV
- experimentDescription: In vitro MAO-B enzyme assay (H2O2 release, absorbance 570 nm)
- Format: biochemical
- conditionDetails: hMAO-B, substrate benzylamine; read-out: Inhibition (IC50) MAO-B
Exercise: for every item that follows, state its recorded pIC50.
Give bare numbers, as −log10 of the molar value.

# batch size: 4; output pIC50 per entry
1. CC(=O)N[C@H]1CC(=O)N(c2ccc(OCc3cccc(F)c3)cc2)C1 [Sembragiline, reference compound]
2. CC(C)C[C@H](NCc1ccc(-c2ccc(C(F)(F)F)cc2)cc1)C(N)=O [Compound 22j]
3. CC(C)Cc1ccc(-c2ccc(CN[C@@H](C)C(N)=O)cc2)cc1 [Compound 18o]
4. COc1ccc(-c2ccc(CN[C@@H](C)C(N)=O)cc2)cc1 [Compound 18n]

[7.82, 5.28, 6.49, 5.48]

----------
- experimentDescription: Pharmacokinetic study in cynomolgus monkeys (N118029)
- Type: in vivo, cynomolgus monkey (Macaca fascicularis)
- conditionDetails: male, cynomolgus monkey, plasma, po, 10 mg/kg
recordedMetric: Cmax
Could you give the number and then its unit, please?

Measured Cmax, C[C@H](NCc1ccc(-c2ccc(C(F)(F)F)cc2)cc1)C(N)=O [Compound 18j] : 2230 ng/mL

----------
I'd be grateful if you could share measured melting point for these entries.

Examples with their reported melting point follow.
CC[C@H](NCc1ccc(-c2ccc(C(F)(F)F)cc2)cc1)C(N)=O [Compound 20j] :: 253 to 256 °C
C[C@H](NCc1ccc(-c2ccc(F)cc2)cc1)C(N)=O [Compound 18d] :: 162 to 164 °C
CC(C)C[C@H](NCc1ccc(-c2cccc(F)c2)cc1)C(N)=O [Compound 22c] :: 264 to 265 °C
C[C@H](NCc1ccc(-c2cccc(Cl)c2)cc1)C(N)=O [Compound 18f] :: 220 to 223 °C
C[C@H](NCc1ccc(-c2ccccc2C(F)(F)F)cc1)C(N)=O [Compound 18h] :: 224 to 227 °C
COc1ccc(-c2ccc(CN[C@@H](C)C(N)=O)cc2)cc1 [Compound 18n] :: 231 to 233 °C

Batch request: melting point for each of the following molecules.
1. NC(=O)CNCc1ccc(-c2ccc(Cl)cc2)cc1 [Compound 17g]
2. CC(C)C[C@H](NCc1ccc(-c2cccc(OC(F)(F)F)c2)cc1)C(N)=O [Compound 22k]

["262 to 266 °C", "232 to 233 °C"]

Batch request: melting point per item, same order as input.
1. CC(C)Cc1ccc(-c2ccc(CN[C@@H](C)C(N)=O)cc2)cc1 [Compound 18o]
2. C[C@H](NCc1ccc(-c2cccc(OC(F)(F)F)c2)cc1)C(N)=O [Compound 18k]

["253 to 256 °C", "209 to 212 °C"]

----------
Provide the reported SI (selectivity index), IC50(MAO-A)/IC50(MAO-B) of each item.
- testSystem: human recombinant MAO-B (hMAO-B) (Homo sapiens)
- Construct: purchased Sigma Aldrich
- experimentDescription: In vitro MAO-B enzyme assay (H2O2 release, absorbance 570 nm)
- Type: biochemical
- conditionDetails: selectivity for MAO-B isoform

NC(=O)CNCc1ccc(-c2ccc(OC(F)(F)F)cc2)cc1 [Compound 17l] :: > 730
CC(C)[C@H](NCc1ccc(-c2ccc(C(F)(F)F)cc2)cc1)C(N)=O [Compound 21j] :: > 25
NC(=O)CNCc1ccc(-c2cccc(C(F)(F)F)c2)cc1 [Compound 17i] :: > 100
CC(C)Cc1ccc(-c2ccc(CN[C@@H](C)C(N)=O)cc2)cc1 [Compound 18o] :: > 307
CC(=O)N[C@H]1CC(=O)N(c2ccc(OCc3cccc(F)c3)cc2)C1 [Sembragiline, reference compound] :: 653

Below are 8 compounds. Give each one its SI (selectivity index), IC50(MAO-A)/IC50(MAO-B).
1. CC(C)C[C@H](NCc1ccc(-c2ccc(C(F)(F)F)cc2)cc1)C(N)=O [Compound 22j]
2. NC(=O)CNCc1ccc(-c2cccc(OC(F)(F)F)c2)cc1 [Compound 17k]
3. NC(=O)CNCc1ccc(-c2ccc(Cl)cc2)cc1 [Compound 17g]
4. NC(=O)CNCc1ccc(-c2cccc(Cl)c2)cc1 [Compound 17f]
5. NC(=O)CNCc1ccc(-c2ccc(C(F)(F)F)cc2)cc1 [Compound 17j]
6. COc1ccc(-c2ccc(CN[C@@H](C)C(N)=O)cc2)cc1 [Compound 18n]
7. CC[C@H](NCc1ccc(-c2ccc(C(F)(F)F)cc2)cc1)C(N)=O [Compound 20j]
8. CC[C@H](NCc1ccc(-c2ccc(OC(F)(F)F)cc2)cc1)C(N)=O [Compound 20l]

["> 19", "> 310", "> 70", "> 64", "> 826", "> 30", "> 413", "> 1,010"]
